- assay_system: class A beta-lactamase SHV-1 (Escherichia coli)
- Sequence (P0AD63 22-286): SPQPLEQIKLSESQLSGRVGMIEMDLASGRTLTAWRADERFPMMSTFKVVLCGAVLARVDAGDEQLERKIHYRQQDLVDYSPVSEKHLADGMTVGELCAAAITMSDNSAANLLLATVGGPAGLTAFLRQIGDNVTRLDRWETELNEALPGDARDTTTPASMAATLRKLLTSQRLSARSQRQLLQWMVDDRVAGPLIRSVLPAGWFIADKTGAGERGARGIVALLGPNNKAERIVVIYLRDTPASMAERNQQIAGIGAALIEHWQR
- assay_overview: IC50 determination with nitrocefin as reporter substrate, SHV-1
observed_property: IC50 (nM)
I only need the number, in nM, no unit after it.

input: Give the reported IC50 for this compound. CO[C@H]1CCC[C@H]2C1=C(C(=O)O)N1C(=O)C(C(C)O)[C@@H]21 (stereo partly shown)
output: 200
